test-target: MMP-12 (Homo sapiens, UniProt P39900)
Construct: In regard to MMP-12, catalytic domain (^100Phe˜^263Gly) was amplified with RT-PCR; His-tag; enterokinase digestion-site
Sequence (P39900 100-263): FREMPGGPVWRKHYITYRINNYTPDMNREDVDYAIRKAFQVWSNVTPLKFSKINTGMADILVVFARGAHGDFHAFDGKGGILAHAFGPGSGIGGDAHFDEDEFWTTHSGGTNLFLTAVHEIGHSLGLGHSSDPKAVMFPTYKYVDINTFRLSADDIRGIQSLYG
assay-explanation: Assay for inhibitory activities on MMPs (fluorogenic peptide substrate), MMP-12
Type: biochemical
pIC50: −log10 of the molar value.
Below, each entry is listed with its recorded pIC50.

[
  {
    "compound": "COc1ccc2cc(C#Cc3ccc(-c4ccc(S(=O)(=O)N[C@H](CC(=O)O)C(=O)O)cc4)cc3)ccc2c1",
    "pIC50": "< 5.00"
  },
  {
    "compound": "CC(C)[C@@H](NS(=O)(=O)c1ccc(-c2ccc(NC(=O)c3ccc4ccccc4c3)cc2)cc1)C(=O)O",
    "pIC50": "< 5.00"
  },
  {
    "compound": "COc1ccc2cc(C#Cc3ccc(-c4ccc(S(=O)(=O)N[C@@H](CO)C(=O)O)cc4)cc3)ccc2c1",
    "pIC50": "< 5.00"
  },
  {
    "compound": "O=C(Nc1ccc(-c2ccc(S(=O)(=O)N[C@H](Cc3ccccc3)C(=O)O)s2)cc1)c1ccc2ccccc2c1",
    "pIC50": "< 5.00"
  },
  {
    "compound": "COc1ccc2cc(C#Cc3ccc(-c4ccc(S(=O)(=O)N[C@H](C)C(=O)O)cc4)cc3)ccc2c1",
    "pIC50": "< 5.00"
  }
]
